- tested_on: T1, PfRH5 from Plasmodium falciparum strain 3D7 (Plasmodium falciparum, UniProt Q8IFM5 25-526)
- T1 sequence: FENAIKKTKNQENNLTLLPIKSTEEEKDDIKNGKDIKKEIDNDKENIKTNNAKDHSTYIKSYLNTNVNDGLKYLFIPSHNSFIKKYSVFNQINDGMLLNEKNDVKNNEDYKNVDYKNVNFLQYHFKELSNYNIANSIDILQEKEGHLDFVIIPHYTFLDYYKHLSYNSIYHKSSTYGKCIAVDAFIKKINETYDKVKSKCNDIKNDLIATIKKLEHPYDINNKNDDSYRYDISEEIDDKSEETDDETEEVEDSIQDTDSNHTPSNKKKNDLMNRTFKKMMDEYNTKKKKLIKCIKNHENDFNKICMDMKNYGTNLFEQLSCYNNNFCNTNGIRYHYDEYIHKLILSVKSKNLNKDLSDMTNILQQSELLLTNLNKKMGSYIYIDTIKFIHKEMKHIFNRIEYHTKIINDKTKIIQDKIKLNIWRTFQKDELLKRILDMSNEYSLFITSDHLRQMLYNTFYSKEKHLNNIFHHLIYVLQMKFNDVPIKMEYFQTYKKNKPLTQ
- assay_explanation: cell-based or functional assay
Listed binders paired with reported Max growth inhibition (%)
// note: answer is a bare numeric in %

Completed entries (count: 5):
H1H29127P (antibody, V domains shown) VH: QVQLVESGGGVVQPGRSLRLSCAASGFTFSSYGMHWVRQAPGKGLEWVAAIWYDGSNKYYADSVKGRFTISRDNSKNTLYLQMNSLRAEDTAVYFCARGEHYYGSGPFDPWGQGTLVTVSS VL: DIQMTQSPSSLSASVGDRVTITCRASQSISNYLNWYQQKPGKAPKLLIFAASSLQSGVPSRFSGSGSGTDFTLTISSLQPEDFATYYCQQSYSSPLTFGGGTKVEIKR ... 63.9
H1H29104P (antibody, V domains shown) VH: EVQLVESGGGLVQPGRSLRLSCAASGFRFDDYAMHWVRQAPGKGLEWVSGINWNSGGKGYADSVQGRFTISRDNAKNSLYLQMNSLRTEDTALYYCAKDRGIAARLLSRDAFDMWGQGTMVTVSS VL: DIQLTQSPSFLSASVGDRVTITCWASQDVSSYLAWYQQKPGKSPKLLIFAASTLQGGIPSRFSGSGSGTEFTLTISSLRPEDFATYYCQHLNTYPYTFGQGTKLEIKR ... 34.4
H1H29125P (antibody, V domains shown) VH: QVQLVESGGGVVQPGRSLRLSCAASGFTFSSYGMHWVRQAPGKGLEWMAVISYDGSNKYYADSVKGRFTISRDNSKNTLFLQMNSLRPEDTAVYYCAQDGSSAIYYFYGMDVWGQGTTVTVSS VL: DIQMTQSPSSLSASIGDRVTITCRASQDINNYLAWFQQKPGKAPKSLIYAASSLQSGVPSKFSGSGSGTDFTLTISSLQPEDFATYYCLQYNSYHPTFGQGTKLEIKR ... 51.1
H1H29138P (antibody, V domains shown) VH: QVQLVESGGGVVQPGRSLRLSCAASGFTFSTYGMHWVRQAPGKGLEWVAVIWYDGTNKYYADSVKGRFTISRDNSKNTLYLQMISLRAEDTAVYYCARDPSGGDHYYYYGMDVWGQGTTVTVSS VL: DIQMTQSPSSLSASVGDRITITCQASQDISNYLNWYQQKPGKAPNLLISDASDLETGVPSRFSGSGSGTDFTFTISSLQPEDFATYYCQQYDNIPITFGQGTRLEIKR ... 58.5
H1H29109P (antibody, V domains shown) VH: EVQLVESGGGLVQPGRSLRLSCAVSGFTFDDYAMHWVRQAPGKGLEWVSGISWNSGDIDYADSVKGRFTISRDNAKNSLYLQMNSLRAEDTALYYCAKDTLSGTGTTWYYFDYWGQGTLVTVSS VL: DIQLTQSPSFLSASVGDRVTITCWASQGISSYLIWYQQKPGKAPKLLIYAASTLQSGVPSRFSGSGSGTEFTLTISSLQPEDFATYYCQQVNSYPLTFGGGTKVEIKR ... 32.2

Shift focus to the following entry.
Task: Which Max growth inhibition (%) is reported for this binder? H1H29089P (antibody, V domains shown) VH: EVQLVQSGAEVKKPGESLKISCKGSGYSFTSYWIVWVRQMPGKGLEWMGIIYPGDSDTRYSPSFQGQVTISADKSISTAYLQWSSLKASDTAMYYCARQDITGTTGFDYWGQGTLVTVSS VL: DIQMTQSPSSLSASVGDRVTITCRASQSIRNYLNWYQQKPGKAPKLLIYAASSLQSGVPSRFSGSGSGTDFTLTISSLQPEDFATYFCQQSYSTPFTFGPGTKVDIKR
Output: 67.6

FYI, the data here is from patent US20210024625A1.
